src = patent US20230293738A1

Molecular target: T1, human 4Ig-B7H3 (B7H3-4Ig-His) (human, UniProt Q5ZPR3 29-466)
T1 construct: Recombinant His-tagged protein immobilised on a CM5 chip; also called 41g-B7H3; human 4Ig-B7-H3 (dominant isoform); not shown: His tag
T1 sequence: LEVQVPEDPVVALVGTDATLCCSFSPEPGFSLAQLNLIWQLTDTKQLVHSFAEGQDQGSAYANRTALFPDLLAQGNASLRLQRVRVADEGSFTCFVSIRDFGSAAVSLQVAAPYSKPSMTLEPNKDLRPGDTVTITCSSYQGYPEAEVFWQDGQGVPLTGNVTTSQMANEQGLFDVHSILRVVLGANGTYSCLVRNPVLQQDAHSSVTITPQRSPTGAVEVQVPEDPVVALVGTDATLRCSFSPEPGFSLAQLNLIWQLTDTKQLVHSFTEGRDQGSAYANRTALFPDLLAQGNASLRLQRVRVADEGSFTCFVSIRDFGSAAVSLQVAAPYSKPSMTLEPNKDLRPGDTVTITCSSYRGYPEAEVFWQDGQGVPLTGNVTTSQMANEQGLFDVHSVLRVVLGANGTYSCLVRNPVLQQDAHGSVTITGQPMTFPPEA
Assay: SPR, Biacore T200, 4Ig-B7H3-His on CM5 chip, 1:1 fit
READOUT TYPE: t ½ (h)
Entry rule: numbers only, all in h.

BINDER	UNIT	t ½
8H9 antibody conjugated with p-SCN-Bn-DOTA, CAR 11.7 (antibody, mouse IgG1, kappa, V domains shown, p-SCN-Bn-DOTA conjugated, CAR 11.7 per antibody; sites not stated, Chelator conjugate, not metal-labelled) VH: QVQLQQSGAELVKPGASVKLSCKASGYTFTNYDINWVRQRPEQGLEWIGWIFPGDGSTQYNEKFKGKATLTTDTSSSTAYMQLSRLTSEDSAVYFCARQTTATWFAYWGQGTLVTVSA VL: DIVMTQSPATLSVTPGDRVSLSCRASQSISDYLHWYQQKSHESPRLLIKYASQSISGIPSRFSGSGSGSDFTLSINSVEPEDVGVYYCQNGHSFPLTFGAGTKLELKR	h	0.756

// Input: 8H9 antibody conjugated with p-SCN-Bn-CHX-A″-DTPA, CAR 1.4 (antibody, mouse IgG1, kappa, V domains shown, p-SCN-Bn-CHX-A″-DTPA conjugated, CAR 1.4 per antibody; sites not stated, Chelator conjugate, not metal-labelled) VH: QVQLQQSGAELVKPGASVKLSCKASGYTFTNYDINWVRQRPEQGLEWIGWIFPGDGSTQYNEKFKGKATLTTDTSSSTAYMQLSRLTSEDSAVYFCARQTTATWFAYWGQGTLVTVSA VL: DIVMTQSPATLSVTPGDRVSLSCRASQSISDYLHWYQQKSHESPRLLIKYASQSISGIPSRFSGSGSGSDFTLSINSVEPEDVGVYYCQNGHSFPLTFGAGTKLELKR . Output its t ½ only.
1.09

Consider the binder 8H9 antibody conjugated with p-SCN-Bn-DOTA, CAR 2.6 (antibody, mouse IgG1, kappa, V domains shown, p-SCN-Bn-DOTA conjugated, CAR 2.6 per antibody; sites not stated, Chelator conjugate, not metal-labelled) VH: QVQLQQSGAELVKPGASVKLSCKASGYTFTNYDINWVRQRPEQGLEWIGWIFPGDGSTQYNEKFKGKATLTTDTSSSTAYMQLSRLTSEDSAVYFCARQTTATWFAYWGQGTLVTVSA VL: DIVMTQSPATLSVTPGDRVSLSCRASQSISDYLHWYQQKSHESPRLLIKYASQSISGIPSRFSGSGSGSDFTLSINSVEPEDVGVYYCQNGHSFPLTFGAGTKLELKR and give its recorded t ½.
1.42
